target: full-length HAQ STING (Homo sapiens, UniProt Q86WV6, G230A/H232R/R293Q/R71H); construct: made in house; host or cells: Trichoplusia ni (Hi-Five) insect cells, baculovirus generated in Sf21; crude membranes; experiment: 3H-cGAMP filtration binding assay (HAQ STING); details: competition with tritiated cGAMP ligand; T. ni cell membranes overexpressing full-length HAQ STING
Sequence (Q86WV6 with tags, fused parts or gaps R71H/G230A/H232R/R293Q): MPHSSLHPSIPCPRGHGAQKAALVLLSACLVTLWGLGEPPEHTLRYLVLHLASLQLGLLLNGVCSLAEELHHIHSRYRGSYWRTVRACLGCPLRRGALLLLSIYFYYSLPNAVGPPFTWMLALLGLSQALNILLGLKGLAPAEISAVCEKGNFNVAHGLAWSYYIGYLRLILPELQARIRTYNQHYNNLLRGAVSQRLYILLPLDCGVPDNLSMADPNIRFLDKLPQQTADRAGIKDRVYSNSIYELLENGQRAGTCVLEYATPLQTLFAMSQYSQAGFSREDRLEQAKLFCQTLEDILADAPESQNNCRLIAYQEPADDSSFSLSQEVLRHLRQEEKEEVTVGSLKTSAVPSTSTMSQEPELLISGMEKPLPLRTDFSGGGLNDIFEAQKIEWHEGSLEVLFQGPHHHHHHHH
Provide the recorded EC50 for the entries that follow.
Numbers only, in nM.

The examples below pair each entry with its known result.
molecule | measurement.unit | numeric.result
Nc1nc2c(ncn2[C@@H]2O[C@@H]3COP(=O)(S)O[C@H]4C[C@H](n5cc(F)c6c(=O)[nH]cnc65)O[C@@H]4COP(=O)(S)O[C@@H]2[C@@H]3F)c(=O)[nH]1 (single isomer, unassigned) [Example 53] | nM | 167
O=c1[nH]cnc2c1ncn2[C@@H]1O[C@@H]2CO[P@@](=O)(S)O[C@@H]3C[C@@H](CO[P@@](=O)(S)O[C@H]2[C@@H]1F)O[C@H]3n1ccc(=O)n2ccnc12 [Example 29] | nM | 45
Nc1nc2c(ncn2[C@@H]2O[C@@H]3COP(=O)(S)O[C@H]4C[C@H](n5ccc6c(=O)[nH]cnc65)O[C@@H]4COP(=O)(S)O[C@@H]2[C@@H]3F)c(=O)[nH]1 (single isomer, unassigned) [Example 35] | nM | 11

With those in mind, consider the next molecule.
[in] Which EC50 is reported with full-length HAQ STING (Homo sapiens, UniProt Q86WV6, G230A/H232R/R293Q/R71H) for this entry: Nc1nc2c(nnn2[C@@H]2O[C@@H]3COP(=O)(S)O[C@H]4C[C@H](n5ccc6c(=O)[nH]cnc65)O[C@@H]4COP(=O)(S)O[C@@H]2C3)c(=O)[nH]1 (single isomer, unassigned) [Example 43] ?
[out] 37

---

molecular target: full-length HAQ STING (Homo sapiens, UniProt Q86WV6, G230A/H232R/R293Q/R71H); construct: made in house; host or cells: Trichoplusia ni (Hi-Five) insect cells, baculovirus generated in Sf21; crude membranes; experiment: 3H-cGAMP filtration binding assay (HAQ STING); conditions: competition with tritiated cGAMP ligand; T. ni cell membranes overexpressing full-length HAQ STING
measurement.kind: EC50 (nM)
One number for each entry, in nM.

The examples below pair each entry with its known result.
molecule | measurement.unit | EC50
Nc1nc2c(ncn2[C@@H]2O[C@@H]3CO[P@](=O)(S)O[C@H]4[C@H](F)[C@H](n5ccc6c(=O)[nH]cnc65)O[C@@H]4CO[P@@](=O)(S)O[C@@H]2C3)c(=O)[nH]1 | nM | 2
Nc1ncnc2c1ncn2[C@@H]1O[C@@H]2CO[P@@](=O)(S)O[C@@H]3[C@H](O)[C@@H](CO[P@](=O)(S)O[C@H]2[C@@H]1F)O[C@H]3n1ccc(=O)n2ccnc12 | nM | 140
Nc1nc2c(ncn2[C@@H]2O[C@@H]3COP(=O)(S)O[C@H]4[C@@H](O)[C@H](n5ccc(=O)n6ccnc56)O[C@@H]4COP(=O)(S)O[C@@H]2[C@@H]3F)c(=O)[nH]1 (stereo partly shown) | nM | 16
Nc1ncnn2c([C@H]3C[C@@H]4O[P@@](=O)(S)OC[C@H]5O[C@@H](n6ccc(=O)n7ccnc67)[C@H](O[P@](=O)(S)OC[C@H]4O3)[C@@H]5O)cnc12 | nM | 2
Nc1nc2c(nnn2[C@@H]2S[C@@H]3COP(=O)(S)O[C@H]4[C@H](F)[C@H](n5ccc6c(=O)[nH]cnc65)O[C@@H]4COP(=O)(S)O[C@@H]2[C@@H]3F)c(=O)[nH]1 (single isomer, unassigned) [Example 49] | nM | 1
Nc1nc2c(ncn2[C@@H]2O[C@@H]3COP(=O)(S)O[C@H]4C[C@H](n5ccc6c(=O)[nH]cnc65)O[C@@H]4COP(=O)(S)O[C@@H]2[C@@H]3F)c(=O)[nH]1 (single isomer, unassigned) [Example 36] | nM | 2
Nc1cc2c(ncn2[C@@H]2O[C@@H]3COP(=O)(S)O[C@H]4[C@H](F)[C@H](n5ccc6c(=O)[nH]cnc65)O[C@@H]4COP(=O)(S)O[C@@H]2[C@@H]3F)c(=O)[nH]1 (stereo partly shown) | nM | 13
Nc1ccnc2c1nnn2[C@H]1C[C@@H]2OP(=O)(S)OC[C@H]3O[C@@H](n4ccc(=O)n5ccnc45)[C@H](OP(=O)(S)OC[C@H]2O1)[C@@H]3O (stereo partly shown) | nM | 126

List EC50 for every entry below, keeping the order given.
1. Nc1nc2c(ncn2[C@@H]2O[C@@H]3COP(=O)(S)O[C@H]4[C@H](F)[C@H](n5ccc6c(=O)[nH]cnc65)O[C@@H]4COP(=O)(S)O[C@@H]2[C@@H]3F)c(=O)[nH]1 (single isomer, unassigned) [Example 40]
2. Nc1nc2c(nnn2[C@@H]2O[C@@H]3COP(=O)(S)O[C@H]4[C@H](F)[C@H](n5ccc6c(=O)[nH]cnc65)O[C@@H]4COP(=O)(S)O[C@@H]2C3)c(=O)[nH]1 (stereo partly shown)

[out]
[5, 3]

Measured values drawn from patent US11685761B2 for this set.
